measurement_target: KCNQ 2/3 channels (HEK293 cells stably expressing human KCNQ2 and KCNQ3 subunits) (Homo sapiens, UniProt O43525+O43526)
experiment_summary: KCNQ2/3 channel activation, thallium flux FLIPR assay with BTC-AM dye
recorded_conditions: HEK293 cells expressing human KCNQ2 and KCNQ3; thallium flux, FLIPR
We begin with a simple list: items and their reported EC50.

Here is how some compounds turned out for EC50.
- compound: "O=C(Cc1ccc(Cl)cc1)Nn1nc(-c2ccc(Cl)cc2)c2c(F)ccc(F)c2c1=O"
  EC50: "100 to 500 nM"
- compound: "CC(C)c1nn(NC(=O)CC23CC4CC(CC(C4)C2)C3)c(=O)c2ccccc12"
  EC50: "< 100 nM"

The recorded EC50 for CC(C)(C)c1nn(NC(=O)CC2CC3CCC2C3)c(=O)c2ccccc12 (racemic) is < 100 nM

The recorded EC50 for CC(C)(C)c1nn(NC(=O)CC2CCCC2)c(=O)c2ccccc12 is < 100 nM

The recorded EC50 for O=C(Cc1cc(F)cc(F)c1)Nn1nc(C2CCCCC2)c2ccccc2c1=O is < 100 nM

The recorded EC50 for Cc1cccc(CC(=O)Nn2nc(-c3ccc(Cl)cc3)c3ccccc3c2=O)c1 is 100 to 500 nM

The recorded EC50 for CC1(CC(=O)Nn2nc(-c3ccc(Cl)cc3)c3ccccc3c2=O)CCCC1 is < 100 nM

The recorded EC50 for COc1ccc(-c2nn(NC(=O)Cc3cc(F)cc(F)c3)c(=O)c3ccccc23)cc1 is 500 to 1000 nM
